settings: 303.15 K; 101 kPa; Liquid; Frequency=3 MHz; Linear variable-path acoustic interferometer
Measured speed of sound, listed per entry.

- cpdSmiles: "Cc1ccccc1"
  speed of sound [m/s]: 1285.5
- cpdSmiles: "c1ccccc1"
  speed of sound [m/s]: 1275.7
- cpdSmiles: "Cc1cccc(C)c1"
  speed of sound [m/s]: 1302.4
- cpdSmiles: "Cc1ccc(C)cc1"
  speed of sound [m/s]: 1287.3
- cpdSmiles: "Cc1ccccc1C"
  speed of sound [m/s]: 1329.4
- cpdSmiles: "Cc1cc(C)cc(C)c1"
  speed of sound [m/s]: 1319.6
- cpdSmiles: "C1COCCO1"
  speed of sound [m/s]: 1323.1
